Assay: soluble on expression in E. coli; label from the status in PepcDB or PDB records
result-type: soluble on expression in E. coli

MTTIASFPILQLPEKSLKIAIQSLTLEELIKFSLISKSTKRAAESLNLQADPFCDLY; not soluble
MAELYVKPGNKERGWNDPPQFSYGLQTQTGGPKRTPLTKRVAAPQDGSPRAPETSGPPPVDHPPPSSKASRPPPMGSCPATGVEPPSSPVIESETLIEDVLRPLEQALEDCHGHTKKQVCDDISRRLVLLREQWAGGKLSIPVKKRMALLVQELLHHQWDAADDIHRSLMVDYVTEVSQWMVGVKRLIAEKRSLSSEETKEEKFTVEPENQTIPGFQQPS; not soluble
